Reference source: ChEMBL document CHEMBL5344475

Experiment: Oral bioavailability in human
Type: ADME, organism-based
Settings: in vivo
Reported bioavailability values for the following compounds.
observation-type: bioavailability (%)

# compound, recorded-measurement
data = [
    ("Cc1[nH]cnc1CN1CCc2c(c3ccccc3n2C)C1=O", 50),
    ("Cc1nccn1CC1CCc2c(c3ccccc3n2C)C1=O (stereo not given)", 56),
    ("CN1[C@@H]2CC[C@H]1C[C@@H](OC(=O)c1c[nH]c3ccccc13)C2", 60),
    ("O=C1NCCN1CCN1CCC(c2cn(-c3ccc(F)cc3)c3ccc(Cl)cc23)CC1", 75),
    ("CC[C@@H](CO)NC(=O)[C@@H]1C=C2c3cccc4[nH]cc(c34)C[C@H]2N(C)C1", 40),
]
